assayed_target: human FPTase (Homo sapiens, UniProt P49354+P49356)
Construct: codons for Glutamic acid-Glutamic acid-Phenylalanine-stop were placed after the last codon for the β subunit; made in house; host or cells: E. coli DH5a
protocol_description: Assay of compounds for FPTase inhibitory activity, once purified human FPTase
Type: biochemical
recorded_endpoint: IC50 (nM)

>>> observed("CC(C)=CCC/C(C)=C/CC/C(C)=C/CO[P@@](=O)(O)OP(=O)(O)O (stereo in doubt) [FPP, farnesyl diphosphate]")
250

(P) CC(C)=CCC/C(C)=C/CC/C(C)=C/CC/C(C)=C/COP(=O)(O)OP(=O)(O)O [GGPP, geranylgeranyl-diphosphate]
(Q) CC(C)=CCC/C(C)=C/CC/C(C)=C/C(O)P(=O)(O)O (racemic)
IN: # compare IC50 for P vs Q ; return the one with the smaller value Your choice should be expressed through its label.
OUT: Q
(Q: 18 nM, P: 240 nM)

Entry source: patent US5821118A
